# method: Half life in Sprague-Dawley rat at 5 mg/kg, po administered via gavage measured up to 24 hrs by LCMS analysis
# Type: ADME, organism-based
# measurement-parameters: in vivo
experimental-readout: half-life
Remember to follow the number with its unit.

Reported half-life, compound Cc1cc(-c2ccncc2)cc(C)c1Nc1ccnc(Nc2ccc(C#N)cc2)n1.Cl : ____ 2.2 h

====

# Test system: Human immunodeficiency virus 1
# method: Antiviral activity against HIV-1 harboring E138K mutant infected in human MT4 cells assessed as protection against virus-induced cytotoxicity incubated for 5 days by MTT assay
# Type: functional, organism-based
# measurement-parameters: Human immunodeficiency virus 1, MT4, 120 h
experimental-readout: pEC50
Please report pEC50 as the negative decimal logarithm of the molar concentration, giving only the number.

Look up pEC50: Cc1cc(-c2ccnc(F)c2)cc(C)c1Nc1ccnc(Nc2ccc(C#N)cc2)n1 7.89

====

# method: Metabolic stability in rat liver microsomes assessed as half life at 1 uM presence of NADPH measured up to 60 mins by LC-MS/MS analysis
# Type: ADME, Microsome
experimental-readout: half-life at 1 µM (min)
Write the number in min without appending the unit.

May I ask what half-life at 1 µM has been recorded for Br.Cc1cnc(Nc2ccc(C#N)cc2)nc1Nc1c(F)cc(-c2ccncc2)cc1F ? 44

====

# assay-system: Human immunodeficiency virus type 1 reverse transcriptase (Human immunodeficiency virus 1, UniProt Q72547)
# method: Inhibition of recombinant wild type p66/p51 HIV1 reverse transcriptase incubated for 40 mins by picogreen dye-based spectrofluorometric analysis
Each entry below lists one item and its recorded IC50 value.
Your answer should be a plain number; it is taken to be in µM.

Illustrative cases are given below, each with its answer.
Cc1cc(-c2ccnc3ccccc23)cc(C)c1Nc1ccnc(Nc2ccc(C#N)cc2)n1; 0.0407
Cc1cnc(Nc2ccc(C#N)cc2)nc1Nc1c(F)cc(-c2ccco2)cc1F; 0.012
Cc1ccc(-c2cc(C)c(Nc3ccnc(Nc4ccc(C#N)cc4)n3)c(C)c2)s1; 0.0438

Fill in: IC50 of Cc1csc(-c2cc(C)c(Nc3ccnc(Nc4ccc(C#N)cc4)n3)c(C)c2)c1 is ___ 0.056

Endpoint output: IC50 of Cc1cc(-c2ccnc(F)c2)cc(C)c1Nc1ccnc(Nc2ccc(C#N)cc2)n1 . Value? 0.0329

Please look up its IC50: Cc1cc(-c2cccs2)cc(C)c1Nc1ccnc(Nc2ccc(C#N)cc2)n1 0.029

Name the recorded IC50 for Cc1cnc(Nc2ccc(C#N)cc2)nc1Nc1c(F)cc(-c2cccnc2)cc1F . 0.197

Name the reported IC50 value associated with the compound Cc1cc(-c2cnc(C(F)(F)F)nc2)cc(C)c1Nc1ccnc(Nc2ccc(C#N)cc2)n1 0.064

Quick check: IC50 of Cc1cnc(Nc2ccc(C#N)cc2)nc1Nc1c(F)cc(-c2ccsc2)cc1F ? 0.012

Entry under review: Cc1cc(-c2cc(C)c(Nc3ccnc(Nc4ccc(C#N)cc4)n3)c(C)c2)ccn1 . Reported IC50? 0.0357

Need IC50, item Cc1cc(-c2cccc3cc[nH]c23)cc(C)c1Nc1ccnc(Nc2ccc(C#N)cc2)n1 0.0605

====

# method: Cytotoxicity against human MT4 cells assessed as reduction in cell viability measured after 5 days by MTT assay
# Assay type: toxicity, cell-based
# measurement-parameters: time 5 day
Field: label. Allowed values: Criterion met (CC50 at 120 h < 6 µM) or Criterion not met (CC50 at 120 h >= 6 µM).

Cc1ccc(-c2cc(C)c(Nc3ccnc(Nc4ccc(C#N)cc4)n3)c(C)c2)s1; Criterion not met
Cc1cc(-c2cc(C)c(Nc3ccnc(Nc4ccc(C#N)cc4)n3)c(C)c2)cc(C)n1; Criterion met
Cc1cc(-c2cccc3cc[nH]c23)cc(C)c1Nc1ccnc(Nc2ccc(C#N)cc2)n1; Criterion met
Cc1cc(-c2cc3ccccc3s2)cc(C)c1Nc1ccnc(Nc2ccc(C#N)cc2)n1; Criterion not met

Strictly below 6 µM in CC50 at 120 h? COc1ncc(-c2cc(C)c(Nc3ccnc(Nc4ccc(C#N)cc4)n3)c(C)c2)cn1 Criterion met

====

# Tested on: Human immunodeficiency virus 1
# method: Antiviral activity against HIV-1 harboring RES056 mutant infected in human MT4 cells assessed as protection against virus-induced cytotoxicity incubated for 5 days by MTT assay
# Format: functional, organism-based
# measurement-parameters: Human immunodeficiency virus 1, MT4, 120 h
EC50 reference
Your answer should be a plain number; it is taken to be in µM.

In the examples that follow, each entry is paired with its recorded EC50.
O=C1Nc2ccc(Cl)cc2[C@@](C#CC2CC2)(C(F)(F)F)O1; 0.56
Cc1cc(-c2ccnc3ccccc23)cc(C)c1Nc1ccnc(Nc2ccc(C#N)cc2)n1; 0.274
Cc1cc(-c2ccncc2)cc(C)c1Nc1ccnc(Nc2ccc(C#N)cc2)n1; 0.064

Here is the next item to consider.
Recorded EC50 of Cc1ncc(-c2cc(C)c(Nc3ccnc(Nc4ccc(C#N)cc4)n3)c(C)c2)cn1 , please. 0.641

====

# method: Selectivity index, ratio of CC50 for cytotoxicity against human MT4 cells to EC50 for antiviral activity against HIV-1 IIIB infected in human MT4 cells
# Type: toxicity, cell-based
# measurement-parameters: read-out: Ratio CC50/EC50
Give MET when the value for selectivity ratio is at least 2000. Give NOT MET when it is less.

Cc1cnc(Nc2ccc(C#N)cc2)nc1Nc1c(F)cc(-c2cccnc2)cc1F; NOT MET

Check if selectivity ratio >= 2000 (inclusive). Item: Cc1cc(-c2cc3ccccc3s2)cc(C)c1Nc1ccnc(Nc2ccc(C#N)cc2)n1 MET

Does Cc1cc(-c2cncnc2)cc(C)c1Nc1ccnc(Nc2ccc(C#N)cc2)n1 have a reported selectivity ratio of at least 2000? MET

Is it the case that Cc1cc(-c2ccnc3ccccc23)cc(C)c1Nc1ccnc(Nc2ccc(C#N)cc2)n1 has selectivity ratio reaching or exceeding 2000? NOT MET

Could you verify whether the entry Cc1cnc(Nc2ccc(C#N)cc2)nc1Nc1c(F)cc(-c2cc(F)nc(F)c2)cc1F shows selectivity ratio of no less than 2000? MET

Does Cc1cc(-c2cccs2)cc(C)c1Nc1ccnc(Nc2ccc(C#N)cc2)n1 have a reported selectivity ratio of at least 2000? MET

Item Cc1cnc(Nc2ccc(C#N)cc2)nc1Nc1c(F)cc(-c2cncnc2)cc1F with selectivity ratio of 2000 or above? NOT MET

====

In this section we review reported pEC50 values for a set of compounds.
# Tested on: Human immunodeficiency virus 1
# method: Antiviral activity against HIV-1 harboring E138K mutant infected in human MT4 cells assessed as protection against virus-induced cytotoxicity incubated for 5 days by MTT assay
# Type: functional, organism-based
# measurement-parameters: Human immunodeficiency virus 1, MT4, 120 h
The read-out pEC50 is expressed as -log10 of concentration in moles per litre.

Cc1cc(-c2ccnc(C(F)(F)F)c2)cc(C)c1Nc1ccnc(Nc2ccc(C#N)cc2)n1; 7.33

Which pEC50 reading was recorded for the compound Cc1csc(-c2cc(C)c(Nc3ccnc(Nc4ccc(C#N)cc4)n3)c(C)c2)c1 ? 7.37

Any idea what its pEC50 is? The compound is Cc1cc(-c2ccco2)cc(C)c1Nc1ccnc(Nc2ccc(C#N)cc2)n1 7.85

Reported pEC50 for Cc1cc(-c2cnc(C(F)(F)F)nc2)cc(C)c1Nc1ccnc(Nc2ccc(C#N)cc2)n1 : what is it? 7.43

====

# method: Selectivity index, ratio of CC50 for cytotoxicity against human MT4 cells to EC50 for antiviral activity against HIV-1 IIIB infected in human MT4 cells
# Type: toxicity, cell-based
# measurement-parameters: read-out: Ratio CC50/EC50
Lab note: compare selectivity ratio with 3000, writing yes (1) if less and no (0) if equal or more.

# example entries with known answers
Cc1cc(-c2cnc(C(F)(F)F)nc2)cc(C)c1Nc1ccnc(Nc2ccc(C#N)cc2)n1; yes (1)
Cc1cc(-c2ccco2)cc(C)c1Nc1ccnc(Nc2ccc(C#N)cc2)n1; yes (1)
Cc1cc(-c2cc(C)c(Nc3ccnc(Nc4ccc(C#N)cc4)n3)c(C)c2)ccn1; yes (1)
Cc1cc(-c2ccncc2)cc(C)c1Nc1ccnc(Nc2ccc(C#N)cc2)n1; no (0)
Cc1ccc(-c2cc(C)c(Nc3ccnc(Nc4ccc(C#N)cc4)n3)c(C)c2)s1; yes (1)
Cc1cnc(Nc2ccc(C#N)cc2)nc1Nc1c(F)cc(-c2ccoc2)cc1F; yes (1)
Cc1cc(-c2ccnc(C(F)(F)F)c2)cc(C)c1Nc1ccnc(Nc2ccc(C#N)cc2)n1; yes (1)
Cc1cc(-c2cc(C)c(Nc3ccnc(Nc4ccc(C#N)cc4)n3)c(C)c2)cc(C)n1; yes (1)

Consider Cc1cc(-c2cccc3cc[nH]c23)cc(C)c1Nc1ccnc(Nc2ccc(C#N)cc2)n1 . Does its selectivity ratio lie strictly below 3000? yes (1)

Lab note: confirm whether the reported selectivity ratio for this compound is below 3000, equality not counting. compound: Cc1cnc(Nc2ccc(C#N)cc2)nc1Nc1c(F)cc(-c2cccs2)cc1F yes (1)

API: query returns whether the compound falls strictly under 3000 in selectivity ratio. Query: Cc1ncc(-c2cc(C)c(Nc3ccnc(Nc4ccc(C#N)cc4)n3)c(C)c2)cn1 yes (1)

Criterion: selectivity ratio strictly below 3000. Is it met by Cc1cc(-c2ccc3cc[nH]c3c2)cc(C)c1Nc1ccnc(Nc2ccc(C#N)cc2)n1 ? yes (1)

Would you kindly verify if selectivity ratio of Cc1cnc(Nc2ccc(C#N)cc2)nc1Nc1c(F)cc(-c2ccc(C#N)nc2)cc1F is strictly less than 3000? no (0)

Hi there! Is selectivity ratio for Cc1cnc(Nc2ccc(C#N)cc2)nc1Nc1c(F)cc(-c2cncc(C(F)(F)F)c2)cc1F below 3000, do you know? yes (1)

Is selectivity ratio of Cc1cnc(Nc2ccc(C#N)cc2)nc1Nc1c(F)cc(-c2ccnc(F)c2)cc1F strictly below 3000? no (0)

Values compiled from ChEMBL document CHEMBL5042530.
